# system name: Neprilysin (Rattus norvegicus, UniProt P07861)
# experimental details: In vitro inhibition of neutral endopeptidase from rat kidney.
property name: log10(IC50) (log10 of the value in nM)
All values: log10 IC50 [nM].

The cases that follow already have their log10(IC50) on record.
{"molecule": "CC(NC(=O)[C@H](Cc1ccc(-c2ccccc2)cc1)CC(COc1ccccc1)C(=O)O)C(=O)O (stereo in doubt)", "property name": "log10(IC50)", "value measured": 0.45}
{"molecule": "O=C(O)CNC(=O)C(Cc1ccccc1)CC(COc1ccccc1)C(=O)O (single isomer, unassigned; isomer B)", "property name": "log10(IC50)", "value measured": 2.61}
{"molecule": "O=C(O)CNC(=O)[C@H](Cc1ccc(-c2ccccc2)cc1)C[C@@H](COc1ccccc1)C(=O)O", "property name": "log10(IC50)", "value measured": 0.51}

Give one value of log10(IC50) per listed molecule.
1. COCCOCC(CC(Cc1ccccc1)C(=O)NCC(=O)O)C(=O)O (single isomer, unassigned; isomer B)
2. C[C@@H](NC(=O)[C@H](Cc1ccc(-c2ccccc2)cc1)CC(COc1ccccc1)C(=O)O)C(=O)O (stereo in doubt; form 2)
3. CSCCC(NC(=O)[C@H](Cc1ccc(-c2ccccc2)cc1)CC(COc1ccccc1)C(=O)O)C(=O)O (mixture of isomers)
4. O=C(O)CC[C@@H](Cc1ccc(-c2ccccc2)cc1)C(=O)NCC(=O)O
5. O=C(O)CNC(=O)[C@H](Cc1ccc(-c2ccccc2)cc1)CC(COc1ccccc1)C(=O)O (single isomer, unassigned; isomer A)

Reply:
1: 2.98; 2: 0.94; 3: 2.00; 4: 0.36; 5: 0.51

====

# system name: Neprilysin (Rattus norvegicus)
# experimental details: In vitro inhibitory activity against neutral endopeptidase (NEP) from rat kidney
property name: pIC50
Answers are plain numbers, as −log10 of the molar value.

Task item: What measured pIC50 is associated with O=C(O)CNC(=O)[C@H](Cc1ccc(-c2ccccc2)cc1)CC(COc1ccccc1)C(=O)O (stereo partly specified) on Neprilysin (Rattus norvegicus)?
Reply: 8.23

====

# system name: Neprilysin (Rattus norvegicus, UniProt P07861)
# Sequence (P07861 whole entry): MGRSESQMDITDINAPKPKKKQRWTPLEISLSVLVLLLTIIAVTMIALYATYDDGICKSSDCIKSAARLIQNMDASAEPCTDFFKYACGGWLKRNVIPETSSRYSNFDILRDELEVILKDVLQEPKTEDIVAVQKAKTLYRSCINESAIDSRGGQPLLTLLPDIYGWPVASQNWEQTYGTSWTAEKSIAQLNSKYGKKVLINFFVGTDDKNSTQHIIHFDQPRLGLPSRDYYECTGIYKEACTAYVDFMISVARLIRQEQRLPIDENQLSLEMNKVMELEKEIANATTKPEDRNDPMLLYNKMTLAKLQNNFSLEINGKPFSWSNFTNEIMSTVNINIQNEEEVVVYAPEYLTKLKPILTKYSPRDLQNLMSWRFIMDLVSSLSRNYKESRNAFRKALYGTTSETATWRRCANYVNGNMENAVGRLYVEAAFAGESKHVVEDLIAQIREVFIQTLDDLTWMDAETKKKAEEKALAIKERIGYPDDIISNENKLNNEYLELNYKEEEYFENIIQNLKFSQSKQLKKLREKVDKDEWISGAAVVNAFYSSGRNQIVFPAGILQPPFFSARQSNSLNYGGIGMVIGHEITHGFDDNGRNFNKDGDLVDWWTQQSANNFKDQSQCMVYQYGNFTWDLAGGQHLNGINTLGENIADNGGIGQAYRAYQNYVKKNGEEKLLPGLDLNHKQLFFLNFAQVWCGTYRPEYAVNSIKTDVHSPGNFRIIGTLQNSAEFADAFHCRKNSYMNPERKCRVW
# experimental details: In vitro inhibition of neutral endopeptidase from rat kidney.
property name: IC50
Kindly write the number and append the unit.

Give one value of IC50 per listed compound.
1. C[C@@H](NC(=O)[C@H](Cc1ccc(-c2ccccc2)cc1)CC(COc1ccccc1)C(=O)O)C(=O)O (stereo in doubt; form 1)
2. CC(NC(=O)[C@H](Cc1ccc(-c2ccccc2)cc1)CC(COc1ccccc1)C(=O)O)C(=O)O (mixture of isomers)

Reply:
13 nM
20 nM

Give one value of IC50 per listed compound.
1. CCCC[C@H](C[C@H](Cc1ccc(-n2cccn2)cc1)C(=O)NCC(=O)O)C(=O)O
2. O=C(O)CNC(=O)[C@H](Cc1ccc(-c2ccccc2)cc1)C[C@H](COc1ccccc1)C(=O)O

Reply:
1: 366 nM; 2: 5.9 nM

Hey, just so you know, these numbers are from ChEMBL document CHEMBL1150980.
